- Tested on: Maize weevil [Sitophilus Zeamais (Motschulsky)]
- method: Maize weevil test (MW)
- Assay type: in vivo
- test parameters: adult weevils, treated corn seeds, 48 hours, percent in solution
measurement name: LC50 MW

Study these solved cases before continuing.
{"smiles record": "C=C(C)C(=Nc1ccc(F)c(Cl)c1)OCc1ccc(F)c(Oc2ccc(Cl)cc2)c1", "system under test": "Maize weevil [Sitophilus Zeamais (Motschulsky)]", "observed": "> 0.01%"}
{"smiles record": "C=C(C)C(=Nc1ccc(C(F)(F)F)cc1)OCc1cccc(Oc2ccccc2)c1", "system under test": "Maize weevil [Sitophilus Zeamais (Motschulsky)]", "observed": "0.004%"}
{"smiles record": "CC(C)C(=Nc1ccc(C#N)cc1)OCc1ccc(F)c(Oc2ccc(Cl)cc2)c1", "system under test": "Maize weevil [Sitophilus Zeamais (Motschulsky)]", "observed": "> 0.01%"}
{"smiles record": "FC(F)(F)C(=Nc1ccc(Cl)cc1)OCc1cccc(Oc2ccccc2)c1", "system under test": "Maize weevil [Sitophilus Zeamais (Motschulsky)]", "observed": "> 0.01%"}
{"smiles record": "Clc1ccc(N=C(OCc2cccc(Oc3ccccc3)c2)C2CCC2)cc1", "system under test": "Maize weevil [Sitophilus Zeamais (Motschulsky)]", "observed": "> 0.01%"}

Task item: Determine its reported LC50 MW: `CC(C)C(=Nc1ccc(F)c(F)c1)OCc1cccc(Oc2ccc(F)cc2)c1`
Reply: 0.0075%

Task item: Determine its reported LC50 MW: `Cc1cc(N=C(OCc2ccc(F)c(Oc3ccc(Cl)cc3)c2)C(C)C)ccc1F`
Reply: > 0.01%

Task item: Determine its reported LC50 MW: `CC(C)C(=Nc1ccc(Cl)c(Cl)c1)OCc1cccc(Oc2ccc(Cl)cc2)n1`
Reply: > 0.01%

Task item: Determine its reported LC50 MW: `CC(C)C(=Nc1ccc(F)c(Cl)c1)OCc1ccnc(Oc2ccc(F)cc2)c1`
Reply: > 0.01%

Task item: Determine its reported LC50 MW: `CC(C)C(=Nc1ccc(F)c(Cl)c1)OCc1ccc(F)c(Oc2ccc(F)cc2)c1`
Reply: 0.0017%

Task item: Determine its reported LC50 MW: `CCC(=Nc1ccc2c(c1)OCO2)OCc1cccc(Oc2ccccc2)c1`
Reply: > 0.01%

Task item: Determine its reported LC50 MW: `CC(C)C(=Nc1ccc(I)c(Cl)c1)OCc1ccc(F)c(Oc2ccc(F)cc2)c1`
Reply: > 0.01%

The reported numbers originate from patent US5089623A.
